Could you please report measured activity at 10 µM for the items listed next?
Tested on: phosphorylated γH2A.X and TP53BP1
TEST DETAILS: DNA damage marker analysis (immuno-staining)
CONDITION NOTES: Homo sapiens, WI-38, 24 h, read-out: Experiment 2, H2A.X-P DNA damage foci staining (under H2O2 stress treatment), at 10 uM
Express it in %; write the number only.

State its activity at 10 µM: O=C(/C(=C/c1ccc(Cl)cc1)c1nc2ccccc2[nH]1)c1ccccc1 [Gr-4D] 123

State its activity at 10 µM: O=[N+]([O-])c1ccccc1S(=O)(=O)Nc1cccc2cccnc12 [Gr-3A] 143

State its activity at 10 µM: O=C(Nc1cccc(Cl)c1)c1ccc([N+](=O)[O-])o1 [Gr-1D] 164

State its activity at 10 µM: Oc1ncnc2sc3c(c12)CCC3 [O14] 221

State its activity at 10 µM: Cc1ccc(NC(=O)c2ccc([N+](=O)[O-])o2)cc1C [Gr-1F] 127

State its activity at 10 µM: O=C(Nc1cc(C(F)(F)F)ccc1Cl)c1ccc([N+](=O)[O-])o1 [Gr-1B] 118

State its activity at 10 µM: Oc1ccccc1-c1noc(-c2ccccc2O)n1 [O27] 26.1
